Reported % Inhibition (Mean ± SD) is given for each of the following compounds.
Test system: UGT2B
test-protocol: Measurement of the inhibition of UGT2B activity in vitro (metabolism of nalbuphine in liver microsome, HPLC)
experimental-context: Table 6, enhancer 8.5 μM; negative = enhancement
Enter the number, and then the unit.

| compound | target-under-test | result |
| --- | --- | --- |
| O=c1cc(-c2ccc(O)c(O)c2)oc2cc(O[C@@H]3O[C@H](CO)[C@@H](O)[C@H](O)[C@H]3O)cc(O)c12 [luteolin-7-glucoside, Luteolin-7-Glucoside] | UGT2B | −45.053 ± 3.583% |

Exercise: Return % Inhibition (Mean ± SD) (reported value) for this compound: `COc1ccc([C@@H]2CC(=O)c3c(O)cc(O[C@@H]4O[C@H](CO)[C@@H](O)[C@H](O)[C@H]4O[C@@H]4O[C@@H](C)[C@H](O)[C@@H](O)[C@H]4O)cc3O2)cc1`
Key: −16.068 ± 8.122%

Exercise: Provide only the value of recorded % Inhibition (Mean ± SD) for `C[C@@H]1O[C@@H](O[C@H]2[C@H](Oc3cc(O)c4c(c3)O[C@H](c3ccc(O)cc3)CC4=O)O[C@H](CO)[C@@H](O)[C@@H]2O)[C@H](O)[C@H](O)[C@H]1O`
Key: −124.10 ± 16.541%

Exercise: Consider the compound `O=c1cc(-c2ccc(O)cc2)oc2cc(O)c([C@@H]3O[C@H](CO)[C@@H](O)[C@H](O)[C@H]3O)c(O)c12` and give its recorded % Inhibition (Mean ± SD).
Key: 29.821 ± 9.786%

Exercise: Answer with the recorded % Inhibition (Mean ± SD) for the compound listed here: `C[C@@H]1O[C@@H](Oc2c(-c3ccc(O)c(O)c3)oc3cc(O)cc(O)c3c2=O)[C@H](O)[C@H](O)[C@H]1O`
Key: −81.27 ± 15.027%

====

Test system: UGT2B
test-protocol: in vitro
experimental-context: male, Sprague-Dawley, rat, % Inhibition (Mean ± SD)
property-label: inhibition at 60 min, 212.5 μM (%)
Just the number in %, nothing appended.

Exercise: Consider the molecule O=c1cc(-c2ccccc2)oc2cc(O)c(O)c(O)c12 [baicalein] and give its recorded inhibition at 60 min, 212.5 μM.
Key: -146

====

Listing of entries alongside the reported inhibition at 60 min, 850 μM.
Tested on: UGT2B
test-protocol: in vitro
experimental-context: male, Sprague-Dawley, rat, % Inhibition (Mean ± SD)
Dear colleague, please return just the value in %, with no unit written.

Sample records with inhibition at 60 min, 850 μM:
| compound | output-unit | inhibition at 60 min, 850 μM |
| --- | --- | --- |
| O=C1CC(c2ccc(O)c(O)c2)Oc2cc(O)cc(O)c21 (centres unmarked) [eriodictyol, Eriodictyol] | % | 14.1 |
| COc1ccc(C2CC(=O)c3c(O)cc(O)cc3O2)cc1O (centres unmarked) [hesperetin, Hesperetin] | % | -124 |
| O=c1c(O)c(-c2ccc(O)c(O)c2)oc2cc(O)cc(O)c12 [quercetin, Quercetin] | % | -119 |

Exercise: Specify the recorded inhibition at 60 min, 850 μM for O=c1ccc2ccc(O)cc2o1 [umbelliferone, Umbelliferone] , system: UGT2B.
Key: -20.6

Exercise: Report its inhibition at 60 min, 850 μM with UGT2B as the test system: Oc1cc(O)c2c(c1)OC(c1ccc(O)c(O)c1)[C@@H](O)C2 (single isomer, unassigned; (+)) [(+)-catechin, (+)-Catechin]
Key: -65.3
